// compounds with reported IC50 on Muscarinic acetylcholine receptor M1 (Rattus norvegicus, UniProt P08482), multi-publication
Assay Target: Muscarinic acetylcholine receptor M1 (Rattus norvegicus, UniProt P08482)
Sequence (P08482 whole entry): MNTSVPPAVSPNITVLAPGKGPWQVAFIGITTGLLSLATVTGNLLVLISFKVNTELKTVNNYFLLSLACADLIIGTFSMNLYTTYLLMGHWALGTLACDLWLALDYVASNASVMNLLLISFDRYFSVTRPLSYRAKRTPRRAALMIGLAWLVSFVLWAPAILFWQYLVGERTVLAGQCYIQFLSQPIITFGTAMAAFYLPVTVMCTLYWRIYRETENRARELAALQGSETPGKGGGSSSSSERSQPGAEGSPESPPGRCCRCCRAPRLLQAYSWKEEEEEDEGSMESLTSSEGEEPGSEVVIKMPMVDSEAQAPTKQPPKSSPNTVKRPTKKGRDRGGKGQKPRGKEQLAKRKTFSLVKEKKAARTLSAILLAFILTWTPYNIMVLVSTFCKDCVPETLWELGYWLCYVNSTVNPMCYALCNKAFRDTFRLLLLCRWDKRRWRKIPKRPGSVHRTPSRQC
Numbers only, in nM.

Cc1cc(-c2ccccc2)nnc1NCCN1CCOCC1 ... 17000
O=C1Nc2cccnc2N(C(=O)C[C@@H]2CCCN3CCCCC23)c2ccccc21 (stereo partly drawn) ... 110
CCN1CCCC1CNc1nnc(-c2ccccc2)cc1C (stereo not drawn) ... 800
Cc1ccc(C2SCC(=O)N2C2=CCCN(C)C2)cc1 (stereo not drawn) ... 143000
CN1CCC=C(C2CN(C(=S)Nc3ccccc3)CCO2)C1 (stereo not drawn) ... 153000

Please give IC50 for each item listed below.
1. O=C1Nc2cccnc2N(C(=O)C[C@H]2CCCN3CCCCC23)c2ccccc21 (stereo partly drawn)
2. COc1noc2c1C[N+](C)(C)CC2.[I-]
3. c1ccc2c(c1)CCCc1cc(NCCCN3CCOCC3)nnc1-2
4. CCCCCCOc1nscc1C1=CCCN(C)C1
5. O=C1Nc2cccnc2N(C(=O)CSCC2CCCN3CCCCC23)c2ccccc21 (stereo not drawn)
6. CC(C)Oc1noc2c1C[S+](C)CC2.[I-] (stereo not drawn)

-- reply
[40, 2800, 2000, 715, 10, 430]
